# Tested on: Vero
# methodDescription: Antiviral activity was determined in plaque reduction assay in vero cells against HSV-1 F strain
# Type: functional
# testConditions: Chlorocebus sabaeus, read-out: ID50 (the source's name)
Quick list: IC50 per entry.
valueType: IC50

In [3]: df
Out[3]:
                         chemsmiles    result
0    O=c1[nH]c(=O)n(COC(CO)CO)cc1Br  > 100 µM
1          Nc1ccn(COC(CO)CO)c(=O)n1  > 100 µM
2      Nc1nc(N)c2ncn(COC(CO)CO)c2n1    3.3 µM
3  Nc1nc2c(ncn2COC(CO)CO)c(=O)[nH]1    0.2 µM
4     Cc1cn(COC(CO)CO)c(=O)[nH]c1=O  > 100 µM
5            Nc1nc(=O)ccn1COC(CO)CO  > 100 µM
6         Nc1nc(=O)n(COC(CO)CO)cc1F  > 100 µM
